# Test system: HCC827
# protocol text: Cytotoxicity against human HCC827 cells assessed as growth inhibition after 72 hrs by calcein-AM dye based fluorescence assay
# Format: functional
# test settings: HCC827, 72 h
assay metric: GI50 (µM)
Form entry: value (µM) — number only.

Data request: Name the reported GI50 value associated with the compound "CC(C)CCn1cnc2c(Nc3ccccc3)nc(N[C@H]3CC[C@H](N)CC3)nc21"
Data returned: 21.7

Data request: Quick one: GI50 for "CC(C)CCn1cnc2c(Nc3cccc(O)c3)nc(N[C@H]3CC[C@H](N)CC3)nc21" ?
Data returned: 21.3

Data request: Which GI50 value belongs to "CC(C)=CCC/C(C)=C/Cn1cnc2c(Nc3cccc(Cl)c3)nc(N[C@H]3CC[C@H](N)CC3)nc21" ?
Data returned: 18.2

Data request: # GI50 lookup, item "CCCCn1cnc2c(Nc3cccc(Cl)c3)nc(N[C@H]3CC[C@H](N)CC3)nc21"
Data returned: 7.2

Data request: Quick one: GI50 of "CC(C)CCn1cnc2c(Nc3cccc(Cl)c3)nc(N[C@H]3CC[C@H](N)CC3)nc21" ?
Data returned: 10.3

Data request: Reported GI50 for "COc1ccc(Cn2cnc3c(Nc4cccc(Cl)c4)nc(N[C@H]4CC[C@H](N)CC4)nc32)cc1" : what is it?
Data returned: 18.7

Data request: For the compound shown here, "COc1ccc(Nc2nc(N[C@H]3CC[C@H](N)CC3)nc3c2ncn3CCC(C)C)c(OC)c1" , give the reported GI50.
Data returned: 32.9

Data request: # GI50 lookup, item "CCCCCCn1cnc2c(Nc3ccc(Cl)cc3)nc(N[C@H]3CC[C@H](N)CC3)nc21"
Data returned: 11.7

Data request: So what's the measured GI50 for this one? "CCCCn1cnc2c(Nc3ccc(Cl)cc3)nc(N[C@H]3CC[C@H](N)CC3)nc21"
Data returned: 10.8

Data request: Reported GI50 for "CC(C)CCn1cnc2c(NCc3cccc(Cl)c3)nc(N[C@H]3CC[C@H](N)CC3)nc21" : what is it?
Data returned: 16.7

Data request: # get_value(readout='GI50', item= "CCn1cnc2c(Nc3cccc(Cl)c3)nc(N[C@@H]3CCCC[C@@H]3N)nc21" )
Data returned: 12.2

Data request: Given the compound CS(=O)(=O)CCNCc1ccc(-c2ccc3ncnc(Nc4ccc(OCc5cccc(F)c5)c(Cl)c4)c3c2)o1 [LAPATINIB] , what is its reported GI50?
Data returned: 22.3

Data request: If you can, please state the reported GI50 value of "CCCCCCn1cnc2c(Nc3cccc(Cl)c3)nc(N[C@H]3CC[C@H](N)CC3)nc21" .
Data returned: 10.2

Data request: Any idea what GI50 was measured for "CC(C)CCn1cnc2c(Nc3ccc(O)cc3)nc(N[C@H]3CC[C@H](N)CC3)nc21" ?
Data returned: 14.4

Data request: Please look up its GI50: "COc1cc(Nc2nc(N[C@H]3CC[C@H](N)CC3)nc3c2ncn3CCC(C)C)cc(OC)c1"
Data returned: 11.2

Data request: Bench note: what GI50 did "CCCCn1cnc2c(NCc3cccc(Cl)c3)nc(N[C@H]3CC[C@H](N)CC3)nc21" show?
Data returned: 10.6

Data request: I have this compound here, "N[C@H]1CC[C@H](Nc2nc(Nc3ccc(Cl)cc3)c3ncn(C4CCCCC4)c3n2)CC1" , and I need its recorded GI50.
Data returned: 9.1

Data request: Fill in the blank: the reported GI50 of "N[C@H]1CC[C@H](Nc2nc(Nc3cccc(Cl)c3)c3ncn(Cc4ccccc4)c3n2)CC1" is ____.
Data returned: 13.7
